Entry source: the supplement of paper PMC10065799

# target_under_test: EPHB2 (UniProt P29323)
# Sequence (P29323 whole entry, looked up): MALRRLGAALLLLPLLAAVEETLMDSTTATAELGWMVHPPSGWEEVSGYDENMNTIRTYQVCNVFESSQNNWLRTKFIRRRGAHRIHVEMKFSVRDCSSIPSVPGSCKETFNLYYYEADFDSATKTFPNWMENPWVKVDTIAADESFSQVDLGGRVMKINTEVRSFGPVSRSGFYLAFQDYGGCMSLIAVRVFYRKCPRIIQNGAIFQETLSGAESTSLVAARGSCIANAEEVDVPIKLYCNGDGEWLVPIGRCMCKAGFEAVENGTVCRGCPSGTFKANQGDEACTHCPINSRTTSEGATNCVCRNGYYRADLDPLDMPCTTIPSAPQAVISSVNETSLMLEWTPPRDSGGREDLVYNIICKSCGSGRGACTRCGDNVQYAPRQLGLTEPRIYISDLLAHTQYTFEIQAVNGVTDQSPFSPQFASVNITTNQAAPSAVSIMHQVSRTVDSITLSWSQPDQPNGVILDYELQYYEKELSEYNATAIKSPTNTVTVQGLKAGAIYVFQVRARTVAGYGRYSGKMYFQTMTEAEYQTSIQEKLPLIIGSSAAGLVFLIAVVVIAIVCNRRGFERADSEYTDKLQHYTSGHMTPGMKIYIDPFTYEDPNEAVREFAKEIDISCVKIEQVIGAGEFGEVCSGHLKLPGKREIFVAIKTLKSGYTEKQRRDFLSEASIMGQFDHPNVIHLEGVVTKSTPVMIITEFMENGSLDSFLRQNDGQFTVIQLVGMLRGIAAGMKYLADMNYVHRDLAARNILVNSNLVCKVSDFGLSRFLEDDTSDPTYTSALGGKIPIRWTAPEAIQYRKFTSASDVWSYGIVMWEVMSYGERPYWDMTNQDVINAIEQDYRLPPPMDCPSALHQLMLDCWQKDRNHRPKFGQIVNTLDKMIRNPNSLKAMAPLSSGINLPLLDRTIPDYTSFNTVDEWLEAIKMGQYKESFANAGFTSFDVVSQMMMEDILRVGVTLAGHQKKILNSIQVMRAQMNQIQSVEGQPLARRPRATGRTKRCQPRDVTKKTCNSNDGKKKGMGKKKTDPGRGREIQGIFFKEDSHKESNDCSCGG
# assay_method_text: phosphorylation enrichment, bacterial display (enrichment ratio); higher = better substrate or ligand; peptides without Tyr show the background
Some sequences, each annotated with its measured phosphorylation enrichment.
Please respond with just the number, no unit label.

Prompt: Identify measured phosphorylation enrichment corresponding to MSSAGYRAAEG [COL6A3_Y543_T538M]
Completion: 0.334

Prompt: Identify measured phosphorylation enrichment corresponding to EEALYYLTRVE [SET_Y119_H118Y]
Completion: 1.91

Prompt: Identify measured phosphorylation enrichment corresponding to VIDGKYAFKPK [GTF2E2_Y137]
Completion: 0.304

Prompt: Identify measured phosphorylation enrichment corresponding to SWSTSYSGFRF [NKAPL_Y91_YF]
Completion: 0.663

Prompt: Identify measured phosphorylation enrichment corresponding to EATKGYLDDPT [G6PD_Y322]
Completion: 0.473

Prompt: Identify measured phosphorylation enrichment corresponding to IMFTSYFLTIL [TAS2R16_Y239_V235M]
Completion: 0.555

###

# target_under_test: SHP2-C SH2;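 note: peptide library displayed on the E. coli surface as eCPX fusions, selected cells deep-sequenced, score is each peptide's frequency after selection divided by its frequency in the input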
# assay_method_text: SH2 binding enrichment of the phosphorylated peptide, bacterial display (enrichment ratio); higher = better substrate or ligand; peptides without Tyr show the background
Some sequences, each annotated with its measured SH2 binding enrichment.
Please respond with just the number, no unit label.

In the examples that follow, each entry is paired with its recorded SH2 binding enrichment.
- chain_sequence: "FSEVRYVKEPF [HIPK4_Y170_YF]"
  number: 0.783
- chain_sequence: "SLFNGYVYSGV [NEIL3_Y71]"
  number: 2.5
- chain_sequence: "NDFGNYNQQPS [HNRNPA2B1_Y306]"
  number: 0.66
- chain_sequence: "EFISEFCGEII [EZH2_Y641_Y641F]"
  number: 0.895

Read the next record carefully.
Prompt: Identify measured SH2 binding enrichment corresponding to SLFNGYVFSGV [NEIL3_Y71_YF]
Completion: 0.719

###

Some sequences, each annotated with its measured phosphorylation enrichment.
# System: c-Src
# assay_method_text: phosphorylation enrichment, bacterial display (enrichment ratio); higher = better substrate or ligand; peptides without Tyr show the background
Please respond with just the number, no unit label.

In the examples that follow, each entry is paired with its recorded phosphorylation enrichment.
- chain_sequence: "CTTIHYNFMWN [TP53_Y234_C238W_YF]"
  phosphorylation enrichment: 0.59
- chain_sequence: "RAHARYCADAR [ACOT4_Y52]"
  phosphorylation enrichment: 0.419
- chain_sequence: "KMKGEYFRFLA [YWHAG_Y130_D129E_YF]"
  phosphorylation enrichment: 2.76
- chain_sequence: "IRTIDYRFTVW [IDS_Y497_YF]"
  phosphorylation enrichment: 0.39
- chain_sequence: "ENGPFYASFPP [GDAP2_Y488_T489A_YF]"
  phosphorylation enrichment: 7.57

Prompt: Identify measured phosphorylation enrichment corresponding to PKGIRYGQGAG [CSRP3_Y73_G72R]
Completion: 0.585

Prompt: Identify measured phosphorylation enrichment corresponding to SYTDPYAQPPL [KMT2D_Y2378]
Completion: 0.587

Prompt: Identify measured phosphorylation enrichment corresponding to EFISEFCGEII [EZH2_Y641_Y641F]
Completion: 0.618

Prompt: Identify measured phosphorylation enrichment corresponding to CTTIRYNYMCN [TP53_Y234_H233R]
Completion: 0.417

###

# target_under_test: EPHB2 (UniProt P29323)
# assay_method_text: phosphorylation enrichment, bacterial display (enrichment ratio); higher = better substrate or ligand; peptides without Tyr show the background
Some sequences, each annotated with its measured phosphorylation enrichment.
Please respond with just the number, no unit label.

Prompt: Identify measured phosphorylation enrichment corresponding to FAADFYKLLGN [ROR2_Y646_YF]
Completion: 0.512

Prompt: Identify measured phosphorylation enrichment corresponding to NLGQQYNSPQE [UMPS_Y432]
Completion: 0.579

Prompt: Identify measured phosphorylation enrichment corresponding to GGEAIYAAPFA [Abl_opt_1995]
Completion: 27.9

Prompt: Identify measured phosphorylation enrichment corresponding to GGSSPYSRRLP [CDK13_Y351]
Completion: 0.314

Prompt: Identify measured phosphorylation enrichment corresponding to NRNVRYLTLDI [AKR1C2_Y305]
Completion: 0.506

Prompt: Identify measured phosphorylation enrichment corresponding to ELTTCYRKKCS [CCBE1_Y70_C75S]
Completion: 0.565

Prompt: Identify measured phosphorylation enrichment corresponding to VVKTVYSLQPS [KNSTRN_Y87_P92S]
Completion: 0.455

Prompt: Identify measured phosphorylation enrichment corresponding to STSKTYVISQT [RBBP6_Y87_R91Q]
Completion: 0.418

Prompt: Identify measured phosphorylation enrichment corresponding to PVQAAYQKVVD [HBB_Y131_A136D]
Completion: 1.06

Prompt: Identify measured phosphorylation enrichment corresponding to PLKYLYPNIDK [STAT1_Y668]
Completion: 0.69
